Numbers sourced from patent US8962608B2.

measured-on: JAK1 (recombinant purified GST-tagged catalytic domain) (Homo sapiens (Human), UniProt P23458)
Sequence (P23458 875-1153): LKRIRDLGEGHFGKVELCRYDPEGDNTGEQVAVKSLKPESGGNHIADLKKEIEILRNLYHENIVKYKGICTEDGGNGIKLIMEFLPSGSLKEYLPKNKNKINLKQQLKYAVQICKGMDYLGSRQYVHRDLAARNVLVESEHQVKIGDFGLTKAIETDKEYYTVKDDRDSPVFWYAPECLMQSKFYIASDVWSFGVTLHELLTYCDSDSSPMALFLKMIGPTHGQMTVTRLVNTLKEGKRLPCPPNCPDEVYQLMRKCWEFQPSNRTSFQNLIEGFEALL
test-summary: biochemical;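 further: biochemical assay with HTRF read-out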
pIC50: −log10 of the molar value.
readout-kind: pIC50

(I) CC(C)CN(CC1CC1)[C@H]1CC[C@@H](n2cc(C(N)=O)c(Nc3ccc(C(F)(F)F)cc3)n2)[C@H](C#N)C1 (single isomer, unassigned) [Example 30-9]
(II) N#C[C@H]1C[C@@H](N2CC3(CCC3)C2)CC[C@@H]1n1cc(C(N)=O)c(Nc2ccc(C(F)(F)F)cc2)n1 (single isomer, unassigned) [Example 28-17]
Hi there! Just curious which has the higher pIC50 between I and II . // return label of chosen record
II
(II: 8.70, I: 7.80)

###

measured-on: JAK1 (recombinant purified GST-tagged catalytic domain) (Homo sapiens (Human), UniProt P23458)
test-summary: biochemical
readout-kind: IC50 (nM)

1) N#C[C@H]1CCCC[C@@H]1n1cc(C(N)=O)c(Nc2ccnc(Cl)c2)n1 (racemic)    4
2) COCCN(C)[C@H]1CCC(n2cc(C(N)=O)c(Nc3ccc(Cl)cc3)n2)[C@@H](C#N)C1 (single isomer, unassigned)    2
3) CN(C)[C@H]1CCC(n2cc(C(N)=O)c(Nc3ccc(S(=O)(=O)C(F)(F)F)cc3)n2)[C@@H](C#N)C1 (mixture of isomers)    0.3

(P) N#C[C@H]1C[C@@H](O)CC[C@@H]1n1cc(C(N)=O)c(Nc2ccc(OC(F)(F)F)cc2)n1 (single isomer, unassigned)
(Q) N#C[C@@H]1C[C@H](C(=O)N2CCC(F)(F)C2)CC[C@H]1n1cc(C(N)=O)c(Nc2ccc(Cl)cc2)n1 (single isomer, unassigned)
Of the two listed items, which has the higher IC50? First: P Second: Q Provide the label of your selected option as the answer.
Q

(P) N#C[C@H]1CCCC[C@@H]1n1cc(C(N)=O)c(Nc2cnc3ccc(F)cc3c2)n1 (single isomer, unassigned)
(Q) CN(C)[C@H]1CC[C@H](n2cc(C(N)=O)c(Nc3ccnc(F)c3)n2)[C@@H](C#N)C1 (single isomer, unassigned)
(R) N#C[C@H]1C[C@@H](O)CC[C@@H]1n1cc(C(N)=O)c(Nc2ccc(C(F)(F)F)nc2)n1 (single isomer, unassigned)
Arrange by IC50, high to low. Quick reminder: the answer is the labels in the order asked.
R, Q, P
(R: 21 nM, Q: 3 nM, P: 2 nM)

(a) C[C@H](N[C@@H]1CC[C@H](n2cc(C(N)=O)c(Nc3ccc(C(F)(F)F)cc3)n2)[C@@H](C#N)C1)C1CC1 (single isomer, unassigned)
(b) CC(C)(O)C1CN([C@H]2CC[C@H](n3cc(C(N)=O)c(Nc4ccc(C(F)(F)F)cc4)n3)[C@@H](C#N)C2)C1 (single isomer, unassigned)
Given the listed records, identify the one among a and b with higher IC50. // output: label of the selected item
b

(P) C[C@]1(O)CC[C@H](n2cc(C(N)=O)c(Nc3ccc(Cl)c(F)c3)n2)[C@@H](C#N)C1 (single isomer, unassigned)
(Q) C[C@H](N[C@@H]1CC[C@H](n2cc(C(N)=O)c(Nc3ccc(OC(F)(F)F)cc3)n2)[C@@H](C#N)C1)C1CC1 (single isomer, unassigned)
// compare measured IC50, left P , right Q , return larger // caller expects the label of the chosen entry
Q
(Q: 4 nM, P: 2 nM)
